Some compounds, each annotated with its measured zone of inhibition at 20 µg/mL.
test system: Priestia megaterium; assay: Antimicrobial activity against Bacillus megaterium at 20 ug/ml after 24 hr by disk diffusion method; assay type: functional; details: read-out: IZ
# output: bare number, implied unit mm

Consider the reported zone of inhibition at 20 µg/mL for these compounds:
O=[N+]([O-])c1ccc(N2C(c3ccccc3)C23C(c2ccccc2)=Nc2ccccc23)cc1 (centres undefined)
8.7
Oc1ccccc1N1C(c2ccccc2)C12C(c1ccccc1)=Nc1ccccc12 (centres undefined)
12.7
Cc1cccc(N2C(c3ccccc3)C23C(c2ccccc2)=Nc2ccccc23)c1 (centres undefined)
13.5
Clc1ccccc1N1C(c2ccccc2)C12C(c1ccccc1)=Nc1ccccc12 (centres undefined)
15.5
COc1ccccc1N1C(c2ccccc2)C12C(c1ccccc1)=Nc1ccccc12 (centres undefined)
18.7

Recorded result, O=[N+]([O-])c1cccc(N2C(c3ccccc3)C23C(c2ccccc2)=Nc2ccccc23)c1 (centres undefined) , zone of inhibition at 20 µg/mL: 16.8

Recorded result, Oc1ccc(N2C(c3ccccc3)C23C(c2ccccc2)=Nc2ccccc23)cc1 (centres undefined) , zone of inhibition at 20 µg/mL: 5.5

Recorded result, CC1(C)S[C@@H]2[C@H](NC(=O)[C@H](N)c3ccccc3)C(=O)N2[C@H]1C(=O)O , zone of inhibition at 20 µg/mL: 11.8

Recorded result, c1ccc(C2=Nc3ccccc3C23C(c2ccccc2)N3c2ccccc2)cc1 (centres undefined) , zone of inhibition at 20 µg/mL: 9.8

====

assay: Acute toxicity in Rattus norvegicus (rat); type: organism-based; settings: in vivo
Metric name: LD50

COc1ccccc1N1C(c2ccccc2)C12C(c1ccccc1)=Nc1ccccc12 (stereo not drawn)
5150 mg/kg
Clc1ccccc1N1C(c2ccccc2)C12C(c1ccccc1)=Nc1ccccc12 (stereo not drawn)
4040 mg/kg

Query molecule follows.
Recorded result, O=[N+]([O-])c1cccc(N2C(c3ccccc3)C23C(c2ccccc2)=Nc2ccccc23)c1 (stereo not drawn) , LD50: 4500 mg/kg

====

system: Escherichia coli; test: Antimicrobial activity against Escherichia coli at 20 ug/ml after 24 hr by disk diffusion method; type: functional; conditions: read-out: IZ
Some compounds, each annotated with its measured zone of inhibition at 20 µg/mL.
# output: bare number, implied unit mm

Consider the reported zone of inhibition at 20 µg/mL for these compounds:
COc1cccc(N2C(c3ccccc3)C23C(c2ccccc2)=Nc2ccccc23)c1 (stereo unspecified)
20.8
Cc1cccc(N2C(c3ccccc3)C23C(c2ccccc2)=Nc2ccccc23)c1 (stereo unspecified)
13.5
CCOc1ccccc1N1C(c2ccccc2)C12C(c1ccccc1)=Nc1ccccc12 (stereo unspecified)
25
Clc1cccc(N2C(c3ccccc3)C23C(c2ccccc2)=Nc2ccccc23)c1 (stereo unspecified)
15.8
O=[N+]([O-])c1ccc(N2C(c3ccccc3)C23C(c2ccccc2)=Nc2ccccc23)cc1 (stereo unspecified)
8.8

Entry COc1ccccc1N1C(c2ccccc2)C12C(c1ccccc1)=Nc1ccccc12 (stereo unspecified) : zone of inhibition at 20 µg/mL on Escherichia coli = 21.2

Entry Oc1cccc(N2C(c3ccccc3)C23C(c2ccccc2)=Nc2ccccc23)c1 (stereo unspecified) : zone of inhibition at 20 µg/mL on Escherichia coli = 10.5

Entry CC1(C)S[C@@H]2[C@H](NC(=O)[C@H](N)c3ccccc3)C(=O)N2[C@H]1C(=O)O : zone of inhibition at 20 µg/mL on Escherichia coli = 10.5

Entry O=[N+]([O-])c1cccc(N2C(c3ccccc3)C23C(c2ccccc2)=Nc2ccccc23)c1 (stereo unspecified) : zone of inhibition at 20 µg/mL on Escherichia coli = 17.7

Entry c1ccc(C2=Nc3ccccc3C23C(c2ccccc2)N3c2ccccc2)cc1 (stereo unspecified) : zone of inhibition at 20 µg/mL on Escherichia coli = 9.5

Entry O=C(O)c1ccccc1N1C(c2ccccc2)C12C(c1ccccc1)=Nc1ccccc12 (stereo unspecified) : zone of inhibition at 20 µg/mL on Escherichia coli = 4.2
